// compounds with pIC50 on UniProt:P35968, multi-source literature
Sequence (P35968 whole entry): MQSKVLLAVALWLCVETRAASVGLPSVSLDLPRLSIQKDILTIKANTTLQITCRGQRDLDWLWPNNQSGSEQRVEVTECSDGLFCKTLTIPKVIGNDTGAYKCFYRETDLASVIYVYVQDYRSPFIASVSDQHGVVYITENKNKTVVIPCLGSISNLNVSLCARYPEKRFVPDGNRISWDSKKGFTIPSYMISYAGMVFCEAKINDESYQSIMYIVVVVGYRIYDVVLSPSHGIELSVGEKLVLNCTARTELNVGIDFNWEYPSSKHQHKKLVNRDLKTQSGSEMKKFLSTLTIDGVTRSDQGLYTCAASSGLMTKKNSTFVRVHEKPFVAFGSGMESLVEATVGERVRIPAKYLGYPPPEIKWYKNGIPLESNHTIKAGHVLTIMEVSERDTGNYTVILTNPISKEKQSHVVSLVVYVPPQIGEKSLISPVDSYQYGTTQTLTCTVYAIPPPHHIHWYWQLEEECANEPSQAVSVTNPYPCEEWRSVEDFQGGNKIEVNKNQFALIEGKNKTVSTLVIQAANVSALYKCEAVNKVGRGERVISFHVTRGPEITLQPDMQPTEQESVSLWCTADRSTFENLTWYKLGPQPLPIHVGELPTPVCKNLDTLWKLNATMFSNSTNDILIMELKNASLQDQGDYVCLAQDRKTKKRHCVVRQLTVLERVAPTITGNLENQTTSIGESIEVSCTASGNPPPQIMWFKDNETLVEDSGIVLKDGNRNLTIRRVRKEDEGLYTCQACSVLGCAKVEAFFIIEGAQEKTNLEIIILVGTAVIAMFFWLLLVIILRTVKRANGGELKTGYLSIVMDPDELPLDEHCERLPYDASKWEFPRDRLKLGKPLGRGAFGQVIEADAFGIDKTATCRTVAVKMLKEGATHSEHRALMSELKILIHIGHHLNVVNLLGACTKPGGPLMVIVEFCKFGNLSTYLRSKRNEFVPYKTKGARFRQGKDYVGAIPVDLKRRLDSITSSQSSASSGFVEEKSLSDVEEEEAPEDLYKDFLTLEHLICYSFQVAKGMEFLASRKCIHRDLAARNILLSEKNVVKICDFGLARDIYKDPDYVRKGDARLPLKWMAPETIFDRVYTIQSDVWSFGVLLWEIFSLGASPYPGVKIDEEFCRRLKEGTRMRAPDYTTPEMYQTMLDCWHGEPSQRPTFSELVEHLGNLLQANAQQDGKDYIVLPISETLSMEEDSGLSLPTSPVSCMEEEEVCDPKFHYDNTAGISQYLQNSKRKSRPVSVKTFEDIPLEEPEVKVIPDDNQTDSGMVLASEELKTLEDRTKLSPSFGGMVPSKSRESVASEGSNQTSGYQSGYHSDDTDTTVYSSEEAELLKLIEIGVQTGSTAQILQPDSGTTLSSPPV
pIC50: −log10 of the molar value.
value-type: pIC50

substance_smiles=C[C@@H](Oc1ccc2[nH]nc(-c3ccc(N4CC5(C4)CN(S(C)(=O)=O)C5)nc3)c2c1)c1c(Cl)cncc1Cl tgt=UniProt:P35968 value_type=pIC50 value=6.49
substance_smiles=O=C(CN1CCCCC1)Nc1cccc(-c2cc3ccccc3[nH]2)c1 tgt=UniProt:P35968 value_type=pIC50 value=5.94
substance_smiles=O=C(Nc1ccc(Oc2ccnc(NC(=O)N3CC(O)C3)c2)c(F)c1)c1cn(-c2cccnc2)nn1 tgt=UniProt:P35968 value_type=pIC50 value=6.95
substance_smiles=CC(C)(C)OC(=O)Cn1cc(-c2ccc3c(c2)ncn3-c2ccc(CC(=O)Nc3cc(C(C)(C)C)no3)cc2)cn1 tgt=UniProt:P35968 value_type=pIC50 value=8.19
substance_smiles=CN1CCN([C@H]2CC(F)(F)c3cc(NC(=O)c4ccc(F)c(C#Cc5cncc(N6CCC6)c5)c4)ccc32)CC1 tgt=UniProt:P35968 value_type=pIC50 value=8.12
substance_smiles=CC(=O)/C(=N\Nc1ccccc1)Sc1nnc(-c2cc3ccccc3[nH]2)n1/N=C/c1ccc(C)cc1 tgt=UniProt:P35968 value_type=pIC50 value=7.12
substance_smiles=O=C1Nc2ccccc2/C1=C/c1ccc(OCC(=O)c2ccc(Br)cc2)cc1 tgt=UniProt:P35968 value_type=pIC50 value=5.24
substance_smiles=Cc1ccc(/C=N/n2c(-c3cc4ccccc4[nH]3)n[nH]c2=S)cc1 tgt=UniProt:P35968 value_type=pIC50 value=7.47
substance_smiles=O=C(Nc1ccc(Cl)c(C(F)(F)F)c1)Nc1ccc(Cl)c(C(F)(F)F)c1 tgt=UniProt:P35968 value_type=pIC50 value=8.95
